system: S. aureus MRSA (ATCC 33591); test: MIC susceptibility testing; format: cell-based, Staphylococcus aureus; conditions: Staphylococcus aureus, MRSA ATCC33591; read-out: (G) MRSA (ATCC33591) MIC
Reported endpoint: MIC (µg/mL)
Entry rule: numbers only, all in µg/mL.

Prompt line: What measured MIC goes with CCOC(=O)Cn1c(C(=O)c2ccc(Cl)cc2Cl)cn(Cc2nc3ccc(Cl)nc3[nH]2)c1=O [Compound 2215] ?
Response line: 0.26

Prompt line: Given the compound COCCCn1c(Cc2ccc(Cl)cc2Cl)cn(Cc2nc3ccc(F)nc3[nH]2)c1=O [Compound 2082] , what is its reported MIC?
Response line: 1.54

Prompt line: Any idea what its MIC is? The compound is O=c1n(Cc2nc3nc(F)ccc3[nH]2)cc(Cc2ccc(Cl)cc2Cl)n1C1CCOCC1 [Compound 2088]
Response line: 1.5
